Test method notes: Late stage assay provider results from the probe development effort to identify inhibitors of Protein Phosphatase Methylesterase 1 (PME-1): luminescence-based biochemical dose response assay to determine cytotoxicity of inhibitor compounds. [Related pubchem assays (depositor defined):AID2130, AID2143, AID2171, AID2174, AID2177, AID2232, AID2233, AID2291, AID2363, AID2365, AID2366, AID2368, AID2369, AID2371, AID463124, AID463130, AID463131, AID463132, AID463146, AID463149] Panel member name: Fetal Calf Serum
Type: toxicity
Active and inactive are the calls of the source. The calls are words filed in the database; no cut-off is given here.
Observed property: CC50

Return reported CC50; argument: COC(=O)N1C(=O)[C@](c2ccccc2)(C2CCCCC2)N1C(=O)OC > 10 µM (inactive)
